The measured values listed here are drawn from paper PMC3348450.

Test: Plasma pharmacokinetics of axitinib
Type: in vivo, human
Details: human, plasma, oral, 5 mg
ENDPOINT: AUC (ng·h/mL)
Give the quantity in ng·h/mL, number only.

Ask: May I ask what AUC has been recorded for CNC(=O)c1ccccc1Sc1ccc2c(/C=C/c3ccccn3)n[nH]c2c1 [axitinib, Axitinib] ?
Reply: 138

---

Experiment: Plasma pharmacokinetics of axitinib
Type: in vivo, human
Settings: human, plasma, oral, 5 mg
ENDPOINT: Tmax (h)
# number only, unit h dropped from output

Ask: Recorded Tmax for CNC(=O)c1ccccc1Sc1ccc2c(/C=C/c3ccccn3)n[nH]c2c1 , please?
Reply: 4.04

---

Assay: Plasma pharmacokinetics of axitinib
Format: in vivo, human
Conditions: human, plasma, oral, 10 mg
ENDPOINT: half-life

Ask: Data request, read-out half-life, for CNC(=O)c1ccccc1Sc1ccc2c(/C=C/c3ccccn3)n[nH]c2c1 [axitinib, Axitinib]
Reply: 4.8 to 5.9 h
